B1: TPR t1 (parent)
chain: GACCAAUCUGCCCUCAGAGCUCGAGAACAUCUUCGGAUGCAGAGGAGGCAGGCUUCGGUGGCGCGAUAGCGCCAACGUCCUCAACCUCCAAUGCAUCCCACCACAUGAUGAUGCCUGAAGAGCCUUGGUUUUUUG

# Variants of: B1
# Test: polymerase ribozyme fitness, log enrichment relative to wild type (log ratio); higher = more active; in vitro selection for triplet polymerase activity
Assign true to entries whose polymerase ribozyme fitness (log ratio) meets or exceeds -4; assign false to the rest.

sequence_variant="U106C U112A" answer_label=true
sequence_variant="A50C C76G C82A G120C" answer_label=true
sequence_variant="A27G G36U G42C G120A" answer_label=false

Does G69U A103G U106A have a reported polymerase ribozyme fitness (log ratio) of at least -4?
false

State whether the measured polymerase ribozyme fitness (log ratio) reaches -4, counting equality as reaching it, for C15U G42C
true

Record G39A G51U ; criterion: polymerase ribozyme fitness (log ratio) no lower than -4. Met?
true

Please indicate if the recorded polymerase ribozyme fitness (log ratio) for U7C G48U A50G G61A C89U meets or exceeds -4.
true

Quick check, polymerase ribozyme fitness (log ratio) >= -4? G10C C11U C62G A84U A108G
false

API: above_or_equal(metric=polymerase ribozyme fitness (log ratio), cutoff=-4) for item U21A A37U C94U G120A
true

polymerase ribozyme fitness (log ratio) >= -4 for U54A G60C G113C ?
true

Reported polymerase ribozyme fitness (log ratio) at or above -4? G60U C104A
true

Reported polymerase ribozyme fitness (log ratio) reaches at least -4 for A46U U78C G113A ?
true

API: above_or_equal(metric=polymerase ribozyme fitness (log ratio), cutoff=-4) for item U96C C123G G127C
true

Identify whether the reported polymerase ribozyme fitness (log ratio) of the following variant is -4 or greater: G110C C123U
false

I'd appreciate it if you could say whether C4U U7A C11A has polymerase ribozyme fitness (log ratio) at least equal to -4.
true
